# Target Entity: β2 adrenergic receptors in human astrocytoma cells (1321N1) (Homo sapiens (Human), UniProt P07550)
# Sequence (P07550 whole entry): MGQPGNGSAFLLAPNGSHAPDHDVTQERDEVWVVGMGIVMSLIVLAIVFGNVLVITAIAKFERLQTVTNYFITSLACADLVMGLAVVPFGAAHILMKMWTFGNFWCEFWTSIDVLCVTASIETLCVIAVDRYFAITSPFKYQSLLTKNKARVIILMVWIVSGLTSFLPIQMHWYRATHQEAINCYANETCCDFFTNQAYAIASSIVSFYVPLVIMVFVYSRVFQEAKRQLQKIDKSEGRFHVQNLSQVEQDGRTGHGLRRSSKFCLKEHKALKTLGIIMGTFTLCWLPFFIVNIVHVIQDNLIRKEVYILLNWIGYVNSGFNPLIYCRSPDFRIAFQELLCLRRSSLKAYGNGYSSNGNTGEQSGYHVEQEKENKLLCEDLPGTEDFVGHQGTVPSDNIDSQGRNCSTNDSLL
# Test Protocol: cAMP HTRF assay in human astrocytoma cells (1321N1)
# Type: cell-based
# Measurement Conditions: Endogenous receptor; 1321N1 cells; read-out: Average EC50 [Receptor subtype: Endogenous; Cell type: 1321N1]
pEC50: −log10 of the molar value.
Property Label: pEC50

Compound: CC(C)Oc1ncccc1[C@@H](O)CNC(C)(C)C
pEC50: 6.00 to 7.00
//
Compound: COc1ncccc1[C@@H](O)CNC(C)(C)C
pEC50: > 8.00
//
Compound: CCOc1ncccc1[C@@H](O)CNC(C)(C)C
pEC50: 7.00 to 8.00

Looking up CC(C)(C)NC[C@H](O)c1ccnc(C(F)(F)F)n1 , I found its pEC50 recorded as > 8.00

Looking up [2H]C([2H])([2H])C(NCC(O)c1cccc(C(F)(F)F)n1)(C([2H])([2H])[2H])C([2H])([2H])[2H] (centres unmarked) , I found its pEC50 recorded as < 6.00

Looking up CC(C)(C)NC[C@H](O)c1cncc(C(F)(F)F)n1 , I found its pEC50 recorded as 6.00 to 7.00

Looking up CC(C)(C)NC[C@H](O)c1cccnc1C1CCCC1 , I found its pEC50 recorded as 6.00 to 7.00

Looking up CC(C)NC[C@H](O)c1cccc(C2CC2)n1 , I found its pEC50 recorded as 7.00 to 8.00

Looking up CC(C)(C)NC[C@H](O)c1cccc(C(F)F)n1 , I found its pEC50 recorded as 6.00 to 7.00

Looking up CC(C)(C)NC[C@H](O)c1cccc(C#N)n1 , I found its pEC50 recorded as 7.00 to 8.00

Looking up CC(C)(C)NC[C@H](O)c1cccnc1C1CC1 , I found its pEC50 recorded as 6.00 to 7.00

* * *

# Test Protocol: Plasma protein binding, equilibrium dialysis (rat)
# Type: in vitro ADME
# Measurement Conditions: pH 7.4, equilibrium dialysis 6 hours, read-out: PPB (rat), percent of unbound fraction
// reported fraction unbound at 6 h, 1 μM per item
API note: the answer field is a bare number with no unit suffix.

// known answers, use as guide
Chemical Structure: CC(C)(C)NC[C@H](O)c1cccc(C#N)n1
Observed Result: 1

Chemical Structure: CC(C)(C)NC[C@H](O)c1cccc(C(F)(F)F)n1
Observed Result: 0.9

Looking up Cc1ncccc1[C@@H](O)CNC(C)(C)C , I found its fraction unbound at 6 h, 1 μM recorded as 0.97

* * *

# Test Protocol: Monkey pharmacokinetic studies
# Type: in vivo, male Non-Naïve Cynomolgus Monkeys
# Measurement Conditions: male, cynomolgus monkey, in vivo, PO 0.3 mg/kg
Property Label: Cmax (ng/mL)
The reply should be a number in ng/mL, with the unit left off.

Looking up Cc1ncccc1[C@@H](O)CNC(C)(C)C [Compound 03-115] , I found its Cmax recorded as 67

* * *

# Target Entity: B3-AR (Homo sapiens (Human), UniProt P13945)
# Sequence (P13945 whole entry, species assumed): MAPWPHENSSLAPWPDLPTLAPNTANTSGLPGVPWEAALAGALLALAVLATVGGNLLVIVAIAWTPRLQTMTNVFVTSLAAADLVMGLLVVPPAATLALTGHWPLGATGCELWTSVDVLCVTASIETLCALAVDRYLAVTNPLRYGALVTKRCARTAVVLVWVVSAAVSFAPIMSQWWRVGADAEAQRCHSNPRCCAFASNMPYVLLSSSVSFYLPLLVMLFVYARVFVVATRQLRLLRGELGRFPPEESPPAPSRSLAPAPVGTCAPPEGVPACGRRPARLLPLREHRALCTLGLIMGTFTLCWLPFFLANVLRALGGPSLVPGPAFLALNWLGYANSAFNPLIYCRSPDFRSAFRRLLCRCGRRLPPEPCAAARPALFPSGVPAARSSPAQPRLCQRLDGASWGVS
# Test Protocol: cAMP potency assay, B3-AR expressing CHO-K1 cells
# Type: cell-based
# Measurement Conditions: read-out: Average pEC50 [Receptor subtype: B3-AR, Cell type: CHO-K1] (converted)
// reported EC50 per item

// known answers, use as guide
Compound: O[C@@H](CNC1Cc2ccccc2C1)c1cccc(C(F)(F)F)n1
EC50: > 1 µM

Compound: Cc1ccc([C@@H](O)CNC(C)(C)C)nc1
EC50: > 1 µM

Compound: CCc1ncccc1[C@@H](O)CNC(C)(C)C
EC50: > 1 µM

Compound: CC(C)(C)NCC(O)c1cncc(Cl)n1 (stereo not drawn)
EC50: 0.1 to 1 µM

Compound: CCOc1cccc([C@@H](O)CNC(C)(C)C)n1
EC50: 0.1 to 1 µM

Compound: Cc1ccc([C@H](O)CNC(C)(C)C)nc1C(F)(F)F
EC50: 0.1 to 1 µM

Compound: O[C@@H](CNC1CCC1)c1cccc(C(F)(F)F)n1
EC50: > 1 µM

Compound: Cc1ccc([C@H](O)CNC(C)(C)C)nc1C#N
EC50: 0.1 to 1 µM

Looking up CC(C)Oc1cccc([C@@H](O)CNC(C)(C)C)n1 , I found its EC50 recorded as 0.1 to 1 µM

Looking up CC(C)(C)NC[C@H](O)c1cccc(C2CCC2)n1 , I found its EC50 recorded as 0.1 to 1 µM

Looking up COc1ccc(C[C@@H](C)NC[C@H](O)c2cccc(C(F)(F)F)n2)cc1 , I found its EC50 recorded as 0.1 to 1 µM

Looking up Cc1ccc([C@@H](O)CNC(C)(C)C)nc1C(F)(F)F , I found its EC50 recorded as > 1 µM

Looking up Cc1cc([C@@H](O)CNC(C)(C)C)nc(C(F)(F)F)c1 , I found its EC50 recorded as > 1 µM

Looking up CC1(NC[C@H](O)c2cccc(C(F)(F)F)n2)CC1 , I found its EC50 recorded as > 1 µM

Looking up Cc1ccc([C@@H](O)CNC(C)(C)C)nc1C#N , I found its EC50 recorded as > 1 µM

Looking up Cc1ncccc1[C@@H](O)CNC(C)(C)C , I found its EC50 recorded as > 1 µM

Looking up CC(C)(C)NC[C@H](O)c1cccc(C(C)(F)F)n1 , I found its EC50 recorded as > 1 µM
